The origin of these recorded values is patent US12077503B2.

tested on: ragweed (common ragweed, Ambrosia elatior); test: Test C preemergence; format: in vivo; settings: 62 g ai/ha, scale 0 to 100, 0 no effect, 100 complete control
Exam item: assign Yes to entries whose Plant response rating, Ragweed is below 50 and No to entries at or above 50. Note that a value of exactly 50 receives No.

Enquiry: Is 50 strictly greater than the molecule's reported Plant response rating, Ragweed? molecule: CN1CC(c2ccc(C(C)(F)F)cc2)C(C(=O)Nc2cccc(F)c2F)C1=O (centres unmarked) [Compound 690]
Return: No

New cases:
Enquiry: Is 50 strictly greater than the molecule's reported Plant response rating, Ragweed? molecule: O=C1NCC(c2ccc3c(c2)OC(F)(F)O3)C1C(=O)Nc1cccc(F)c1F (centres unmarked) [Compound 635]
Return: No

Enquiry: Is 50 strictly greater than the molecule's reported Plant response rating, Ragweed? molecule: CN1C[C@H](c2ccc(F)c(F)c2)[C@@H](C(=O)Nc2ccccc2F)C1=O [Compound 596]
Return: Yes

Enquiry: Is 50 strictly greater than the molecule's reported Plant response rating, Ragweed? molecule: CN1CC(c2cccc(OC(F)F)c2)C(C(=O)Nc2cccc(F)c2F)C1=O (centres unmarked) [Compound 616]
Return: Yes

Enquiry: Is 50 strictly greater than the molecule's reported Plant response rating, Ragweed? molecule: CN1CC(c2cccc(OC(F)(F)C(F)F)c2)C(C(=O)Nc2ccccc2C(F)(F)F)C1=O (centres unmarked) [Compound 431]
Return: Yes

Enquiry: Is 50 strictly greater than the molecule's reported Plant response rating, Ragweed? molecule: CN1CC(c2cccc(OC(F)(F)C(F)F)c2)C(C(=O)Nc2ccc(F)c(F)c2F)C1=O (centres unmarked) [Compound 429]
Return: Yes

Enquiry: Is 50 strictly greater than the molecule's reported Plant response rating, Ragweed? molecule: CN1CC(c2ccc(F)c(F)c2)C(C(=O)Nc2ccccc2C(F)(F)F)C1=O (centres unmarked) [Compound 641]
Return: Yes

====

Documented pest or weed control at 250 g/ha across a set of molecules
Test system: redroot pigweed (Amaranthus retroflexus)
Assay: Test G Post-Emergence Protocol
Type: in vivo
Conditions: Amaranthus retroflexus, post-emergence, 312 h, 250 g ai/ha, evaluated after 13 days, 100=total damage to plant, 0=no damage to plant, read-out: Pigweed, Redroot damage rating
From the text: Seeds of corn (Zea mays), giant foxtail (Setaria faberi), barnyardgrass (Echinochloa crus-galli), ivy-leaved morning glory (Ipomoea hederacea), redroot pigweed (Amaranthus retroflexus) and velvetleaf (Abutilon theophrasti) were sown in standard soil in pots. […]
Give a bare numeral; the unit % is implied.

Enquiry: Request the reported pest or weed control at 250 g/ha associated with Cc1nc(Cl)ccc1NC(=O)[C@H]1C(=O)N(C)C[C@@H]1c1ccc(C(F)(F)F)cc1 (racemic)
Return: 10

Enquiry: Request the reported pest or weed control at 250 g/ha associated with COc1cc(C2CN(C)C(=O)C2C(=O)Nc2cccc(F)c2F)cc(Cl)c1F (stereo not shown)
Return: 30

Enquiry: Request the reported pest or weed control at 250 g/ha associated with Cc1cc(C#N)cc(C2CN(C)C(=O)C2C(=O)Nc2cccc(F)c2F)c1 (stereo not shown)
Return: 0

Enquiry: Request the reported pest or weed control at 250 g/ha associated with CN1C[C@H](c2ccnc(C(C)(C)C)n2)[C@@H](C(=O)Nc2ccc(F)c(F)c2F)C1=O (racemic)
Return: 40

Enquiry: Request the reported pest or weed control at 250 g/ha associated with Cc1ccc([C@H]2CN(C)C(=O)[C@@H]2C(=O)Nc2cccc3c2S(=O)(=O)CC3)cc1 (racemic)
Return: 0

Enquiry: Request the reported pest or weed control at 250 g/ha associated with CN1C[C@H](c2cccc(C(F)(F)F)c2)[C@@H](C(=O)Nc2c(O)cccc2F)C1=O (racemic)
Return: 0

New cases:
Enquiry: Request the reported pest or weed control at 250 g/ha associated with CCOc1cc([C@@H]2CN(C)C(=O)[C@H]2C(=O)Nc2cccc(F)c2C)ccc1F (racemic)
Return: 20
